Origin of values: the supplement of paper PMC5998384

Examples of sequences with documented melting temperature follow.
- Tested on: HeLa Kyoto
- test method notes: melting temperature (median over replicates), in situ; higher = more thermally stable
- measurement conditions: cell cycle stage: mitosis

| seq text | melting temperature, °C |
| --- | --- |
| MTLESIMACCLSEEAKEARRINDEIERQLRRDKRDARRELKLLLLGTGESGKSTFIKQMRIIHGSGYSDEDKRGFTKLVYQNIFTAMQAMIRAMDTLKIPYKYEHNKAHAQLVREVDVEKVSAFENPYVDAIKSLWNDPGIQECYDRRREYQLSDSTKYYLNDLDRVADPAYLPTQQDVLRVRVPTTGIIEYPFDLQSVIFRMVDVGGQRSERRKWIHCFENVTSIMFLVALSEYDQVLVESDNENRMEESKALFRTIITYPWFQNSSVILFLNKKDLLEEKIMYSHLVDYFPEYDGPQRDAQAAREFILKMFVDLNPDSDKIIYSHFTCATDTENIRFVFAAVKDTILQLNLKEYNLV [GNAQ] | 54.3 |
| MPKCPKCNKEVYFAERVTSLGKDWHRPCLKCEKCGKTLTSGGHAEHEGKPYCNHPCYAAMFGPKGFGRGGAESHTFK [CRIP1] | 53.5 |
| MAEERPGAWFGFGFCGFGQELGSGRGRQVHSPSPLRAGVDICRVSASWSYTAFVTRGGRLELSGSASGAAGRCKDAWASEGLLAVLRAGPGPEALLQVWAAESALRGEPLWAQNVVPEAEGEDDPAGEAQAGRLPLLPCARAYVSPRAPFYRPLAPELRARQLELGAEHALLLDAAGQVFSWGGGRHGQLGHGTLEAELEPRLLEALQGLVMAEVAAGGWHSVCVSETGDIYIWGWNESGQLALPTRNLAEDGETVAREATELNEDGSQVKRTGGAEDGAPAPFIAVQPFPALLDLPMGSDAVKASCGSRHTAVVTRTGELYTWGWGKYGQLGHEDTTSLDRPRRVEYFVDKQLQVKAVTCGPWNTYVYAVEKGKS [RCCD1] | 54 |
| MARPLVPSSQKALLLELKGLQEEPVEGFRVTLVDEGDLYNWEVAIFGPPNTYYEGGYFKARLKFPIDYPYSPPAFRFLTKMWHPNIYETGDVCISILHPPVDDPQSGELPSERWNPTQNVRTILLSVISLLNEPNTFSPANVDASVMYRKWKESKGKDREYTDIIRKQVLGTKVDAERDGVKVPTTLAEYCVKTKAPAPDEGSDLFYDDYYEDGEVEEEADSCFGDDEDDSGTEES [CDC34] | 49.1 |
| MSADAAAGAPLPRLCCLEKGPNGYGFHLHGEKGKLGQYIRLVEPGSPAEKAGLLAGDRLVEVNGENVEKETHQQVVSRIRAALNAVRLLVVDPETDEQLQKLGVQVREELLRAQEAPGQAEPPAAAEVQGAGNENEPREADKSHPEQRELRPRLCTMKKGPSGYGFNLHSDKSKPGQFIRSVDPDSPAEASGLRAQDRIVEVNGVCMEGKQHGDVVSAIRAGGDETKLLVVDRETDEFFKKCRVIPSQEHLNGPLPVPFTNGEIQKENSREALAEAALESPRPALVRSASSDTSEELNSQDSPPKQDSTAPSSTSSSDPILDFNISLAMAKERAHQKRSSKRAPQMDWSKKNELFSNL [SLC9A3R1] | 57.1 |

* * *

- System: HeLa Kyoto
- test method notes: solubility change mitosis vs G1/S (difference of NP-40 vs SDS log2 ratios) (log2 ratio difference); higher = more soluble in mitosis
solubility change mitosis (log2) listing for selected sequences.
endpoint label: solubility change mitosis (log2)

| seq text | observed value |
| --- | --- |
| MQNEPLTPGYHGFPARDSQGNQEPTTTPDAMVQPFTTIPFPPPPQNGIPTEYGVPHTQDYAGQTGEHNLTLYGSTQAHGEQSSNSPSTQNGSLTTEGGAQTDGQQSQTQSSENSESKSTPKRLHVSNIPFRFRDPDLRQMFGQFGKILDVEIIFNERGSKGFGFVTFENSADADRAREKLHGTVVEGRKIEVNNATARVMTNKKMVTPYANGWKLSPVVGAVYGPELYAASSFQADVSLGNDAAVPLSGRGGINTYIPLISLPLVPGFPYPTAATTAAAFRGAHLRGRGRTVYGAVRAVPPTAIPAYPGVVYQDGFYGADLYGGYAAYRYAQPATATAATAAAAAAAAYSDGYGRVYTADPYHALAPAASYGVGAVASLYRGGYSRFAPY [RBFOX2] | 0.0624 |
| MEDPQSKEPAGEAVALALLESPRPEGGEEPPRPSPEETQQCKFDGQETKGSKFITSSASDFSDPVYKEIAITNGCINRMSKEELRAKLSEFKLETRGVKDVLKKRLKNYYKKQKLMLKESNFADSYYDYICIIDFEATCEEGNPPEFVHEIIEFPVVLLNTHTLEIEDTFQQYVRPEINTQLSDFCISLTGITQDQVDRADTFPQVLKKVIDWMKLKELGTKYKYSLLTDGSWDMSKFLNIQCQLSRLKYPPFAKKWINIRKSYGNFYKVPRSQTKLTIMLEKLGMDYDGRPHCGLDDSKNIARIAVRMLQDGCELRINEKMHAGQLMSVSSSLPIEGTPPPQMPHFRK [ERI1] | -0.00712 |
| MVLLESEQFLTELTRLFQKCRTSGSVYITLKKYDGRTKPIPKKGTVEGFEPADNKCLLRATDGKKKISTVVSSKEVNKFQMAYSNLLRANMDGLKKRDKKNKTKKTKAAAAAAAAAPAAAATAPTTAATTAATAAQ [SRP14] | 0.409 |
| MTDRYTIHSQLEHLQSKYIGTGHADTTKWEWLVNQHRDSYCSYMGHFDLLNYFAIAENESKARVRFNLMEKMLQPCGPPADKPEEN [SF3B5] | 0.221 |
